Value source: patent US10670605B2

- systemTested: cysteines in MDA-MB-231 and Ramos cells (Homo sapiens, UniProt P62888)
- assaySummary: Competitive isoTOP-ABPP in situ (fragment-treated cells)
- Type: cell-based
- statedConditions: 200 μM, insitu, 231
measuredProperty: isoTOP-ABPP ratio P62888_C92

1) CC1CCc2ccccc2N1C(=O)CCl (stereo not shown); 2.2
2) CC(C)CCOCCNC(=O)CCl; 0.6
3) C=CC(=O)Nc1cc(F)c(N2CCN(C(=O)OC(C)(C)C)CC2)c(F)c1; 3.2
4) O=C(CCl)NCCc1c[nH]c2ccccc12; 0.8
5) O=C(CCl)N1CCN(S(=O)(=O)c2ccccc2F)CC1; 1.3
6) O=C(CCl)Nc1cccc2ncccc12; 0.9
7) Cc1ccc(C=C(C#N)C(=O)NCCN2CCOCC2)cc1; 0.8
8) O=C(CCl)NC12CC3CC(CC(C3)C1)C2; 0.9
9) COc1ccccc1OCCNC(=O)CCl; 0.9
10) O=C(CCl)NC(=O)NC12CC3CC(CC(C3)C1)C2; 1.1
